subjectOfTest: Nonstructural protein 3 (Zika virus, UniProt A0A024AXB9)
Sequence (A0A024AXB9 whole entry): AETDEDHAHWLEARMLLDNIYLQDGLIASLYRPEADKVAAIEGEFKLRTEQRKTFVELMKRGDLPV
runDescription: Functional biochemical assay to identify treatments for viral infectious disease that targets Zika NS2B-NS3 protease. Utilizing a direct enzyme activity measurement method, reading the fluorescence intensity is used to characterize the relative potency of inhibitors as IC50.
Set-up: species or system PRVABC59
pIC50: −log10 of the molar value.
Exercise: state measured pIC50 for each of the compounds provided.

Problem: Reported pIC50 for CC(C)NC(=O)[C@H](Nc1ccc2c(c1)C(=O)OC2)c1cc(Cl)cc2[nH]ncc12 : what is it?
Result: < 4.60

Problem: Reported pIC50 for O=C(Nc1ccc2c(c1)CNC2)c1cc(F)c2[nH]nnc2c1 : what is it?
Result: < 4.60

Problem: Reported pIC50 for COC(=O)c1cc(Cl)ccc1NS(=O)(=O)c1ccc(Oc2ccccc2Cl)nc1 : what is it?
Result: < 4.00

Problem: Reported pIC50 for O=C1Cc2c(cccc2C(=O)Nc2cccc(-c3cn[nH]c3)c2)N1 : what is it?
Result: < 4.60

Problem: Reported pIC50 for COC(=O)c1cc(NC(=O)c2cc(Cl)cc(NC(=O)OCc3ccccc3)c2)cc(-c2nnn[nH]2)c1 : what is it?
Result: 5.02

Problem: Reported pIC50 for O=S(=O)(Nc1ccc(Cl)cc1)c1ccc(Oc2ccccc2Cl)cc1 : what is it?
Result: < 4.00

Problem: Reported pIC50 for Cn1nc2c(c1NC(=O)c1cc(Cl)cc(NC(=O)OCc3ccccc3)c1)CNC2 : what is it?
Result: < 4.00

Problem: Reported pIC50 for Cc1c(C(=O)Nc2ccc3c(c2)CCCC(=O)N3C)cc(C2CC2)n1C : what is it?
Result: < 4.60

Problem: Reported pIC50 for NC(=O)[C@H]1CCCN(Cc2c[nH]c3ccccc23)C1 : what is it?
Result: < 4.00

Problem: Reported pIC50 for CCOc1cccc(-c2ccc(S(=O)(=O)Nc3ccc(Cl)cc3C(=O)O)cc2C)c1 : what is it?
Result: 4.95

Problem: Reported pIC50 for O=C(O)c1cc(Cl)ccc1CNS(=O)(=O)c1ccc(Oc2ccccc2Cl)cc1 : what is it?
Result: < 4.00

Problem: Reported pIC50 for NCCC1(C(=O)Nc2ccc3c(c2)C(=O)OC3)CCCC1 : what is it?
Result: < 4.60

Problem: Reported pIC50 for O=C1Cc2c(cccc2C(=O)Nc2cc3c(cn2)OCCO3)N1 : what is it?
Result: < 4.60

Problem: Reported pIC50 for O=C(N[C@@H](C(=O)Nc1ncc([C@H]2CCCN2)s1)c1ccc(OCc2ccccc2)cc1)OCc1ccccc1 : what is it?
Result: < 4.00

Problem: Reported pIC50 for NCc1ccc(/C=C/C(=O)C(=O)N2CCOCC2)cc1 : what is it?
Result: 4.10

* * *

subjectOfTest: Nonstructural protein 3 (Zika virus, UniProt A0A024AXB9)
runDescription: Functional biochemical assay to identify treatments for viral infectious disease that targets Zika NS2B-NS3 protease. Utilizing a direct enzyme activity measurement method, reading the fluorescence intensity is used to characterize the relative potency of inhibitors as IC50.
Parameters: species or system PRVABC59
assayMetric: IC50

Problem: Reported IC50 for Cc1c(C(=O)Nc2cc(CCCN)ccn2)cc(-c2ccccc2)n1C : what is it?
Result: > 25 µM

Problem: Reported IC50 for CC(C)Cn1cccc(C(=O)Nc2ccnc3ccccc23)c1=O : what is it?
Result: > 99.5 µM

Problem: Reported IC50 for NCc1ccc(NS(=O)(=O)c2ccc(Oc3ccccc3Cl)cc2)cc1Cl : what is it?
Result: > 99.5 µM

Problem: Reported IC50 for O=C(Nc1ccc2c(c1)CNC2)N1CCC[C@H]1c1nc2ncccc2[nH]1 : what is it?
Result: > 25 µM

Problem: Reported IC50 for N[C@H]1C[C@H](CNC(=O)[C@@H](NC(=O)OCc2ccccc2)c2ccc(OCc3ccccc3)cc2)C1 : what is it?
Result: > 99.5 µM

Problem: Reported IC50 for Cc1c(C(=O)Nc2cc(CCCN)ccn2)cc(C(C)C)n1C : what is it?
Result: > 99.5 µM

Problem: Reported IC50 for O=C(C(=O)N1CCOCC1)c1c[nH]c2ccccc12 : what is it?
Result: > 99.5 µM

Problem: Reported IC50 for O=C(Nc1cccc([C@@H]2C[C@H]2C(=O)O)c1)c1cc(Cl)cc2[nH]ncc12 : what is it?
Result: > 99.5 µM
